# target.or.system: mu opioid receptor (Rattus norvegicus, UniProt P33535)
# Sequence (P33535 whole entry): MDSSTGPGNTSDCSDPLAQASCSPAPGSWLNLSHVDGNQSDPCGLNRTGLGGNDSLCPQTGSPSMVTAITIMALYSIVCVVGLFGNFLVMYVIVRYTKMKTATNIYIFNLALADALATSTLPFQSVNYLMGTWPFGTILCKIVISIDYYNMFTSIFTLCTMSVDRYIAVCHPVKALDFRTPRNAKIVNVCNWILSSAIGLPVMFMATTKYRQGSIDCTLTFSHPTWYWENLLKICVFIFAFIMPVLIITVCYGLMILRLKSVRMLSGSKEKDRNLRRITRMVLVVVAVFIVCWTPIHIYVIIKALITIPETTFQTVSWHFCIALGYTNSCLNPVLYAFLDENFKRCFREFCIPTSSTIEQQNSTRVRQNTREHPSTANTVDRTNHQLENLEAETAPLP
quantity.name: log10 Ki (log10 of the value in nM)
Plainly stated, the numbers are log10 of Ki given in nM.

Use these answered entries as a reference point.
compound | obs.value
Cc1cc(C(N)=O)cc(C)c1CC(N)C(=O)N1CCCCC1c1nc(-c2ccccc2)c[nH]1 (centres unmarked) | -0.89
N[C@@H](Cc1ccc(O)c([N+](=O)[O-])c1)C(=O)N1CCCC[C@H]1c1nc(-c2ccccc2)c[nH]1 | 2.51
N[C@@H](Cc1cc(F)c(O)c(F)c1)C(=O)N1CCCC[C@H]1c1nc(-c2ccccc2)c[nH]1 | 0.97

Provide log10 Ki, system mu opioid receptor (Rattus norvegicus, UniProt P33535), entry Cc1cc(O)cc(C)c1C[C@H](N)C(=O)N1Cc2ccccc2C[C@H]1c1nc(-c2ccccc2)c(C)[nH]1
0.48
